Below are IC50 values recorded for Nonstructural protein 5 (Dengue virus, UniProt V5TFZ2).
RESULT_TYPE: IC50 (µM)

• C[C@]1(O)[C@H](n2ccc(=O)[nH]c2=O)O[C@](F)(COP(=O)(O)OP(=O)(O)OP(=O)(O)O)[C@H]1O [ADAFOSBUVIR 5'-TRIPHOSPHATE] = 6.6

A: C[C@@]1(O)[C@H](O)[C@@H](COP(=O)(O)OP(=O)(O)OP(=O)(O)O)O[C@H]1n1ccc(=O)[nH]c1=O
B: CC#C[C@@]1(O)[C@H](O)[C@@H](COP(=O)(O)OP(=O)(O)OP(=O)(O)O)O[C@H]1n1ccc(=O)[nH]c1=O
Please indicate which item has the smaller measured IC50: A versus B When you have decided, please share the label of that item. B
(B: 2 µM, A: 5 µM)

----------
# PROTOCOL_NOTES: Cytotoxicity against human HepG2 cells after 96 hrs by CCK-8 assay
# Assay type: cell-based
# CC50 at 96 h values compiled below

Some solved cases for reference:
* C#C[C@@]1(F)[C@H](O)[C@@H](CO[P@@](=O)(N[C@@H](C)C(=O)OC(C)C)Oc2ccccc2)O[C@H]1n1ccc(=O)[nH]c1=O | > 50 µM
* CC(C)OC(=O)[C@H](C)NP(=O)(OC[C@H]1O[C@@H](n2ccc(=O)[nH]c2=O)[C@](C)(O)[C@@H]1O)Oc1ccccc1 (mixture of isomers) | > 50 µM

Sample CC#C[C@@]1(F)[C@H](O)[C@@H](CO[P@@](=O)(N[C@@H](C)C(=O)OC(C)C)Oc2ccccc2)O[C@H]1n1ccc(=O)[nH]c1=O — what was its CC50 at 96 h? > 50 µM

----------
# PROTOCOL_NOTES: Cytotoxicity against human K562 cells
# Type: cell-based
RESULT_TYPE: CC50

Sample C#C[C@]1(O)[C@H](n2ccc(=O)[nH]c2=O)O[C@](F)(CO[P@@](=O)(N[C@@H](C)C(=O)OC(C)C)Oc2ccccc2)[C@H]1O — what was its CC50? > 50 µM
